Target: T1, CD73 protein (UniProt P21589 27-549)
T1 construct: also called CD73-biotin
T1 sequence (looked up): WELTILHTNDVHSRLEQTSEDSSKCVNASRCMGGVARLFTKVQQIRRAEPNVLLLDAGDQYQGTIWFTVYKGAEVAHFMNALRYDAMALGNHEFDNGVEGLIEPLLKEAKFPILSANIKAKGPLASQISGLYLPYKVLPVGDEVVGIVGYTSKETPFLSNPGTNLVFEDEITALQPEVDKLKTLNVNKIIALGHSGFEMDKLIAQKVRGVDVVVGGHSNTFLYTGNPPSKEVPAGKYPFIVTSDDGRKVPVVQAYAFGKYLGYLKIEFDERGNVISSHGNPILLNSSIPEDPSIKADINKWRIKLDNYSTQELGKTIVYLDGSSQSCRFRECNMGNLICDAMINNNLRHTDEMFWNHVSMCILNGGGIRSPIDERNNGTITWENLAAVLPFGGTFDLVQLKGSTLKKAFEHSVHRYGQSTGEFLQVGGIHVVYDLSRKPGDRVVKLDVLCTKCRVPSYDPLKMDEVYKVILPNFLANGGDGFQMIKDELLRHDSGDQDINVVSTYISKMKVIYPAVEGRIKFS
Experiment: Octet BLI; Ab-BN3 on protein A sensors, CD73 in solution
parameter.measured: koff (s⁻¹)
One number for each entry, in s⁻¹.

Problem: Value lookup for koff; key = ABN3-2G-BN3 (antibody, V domains shown, not fully specified; position marked * in QQ*YTTPPT (light chain residue 91): unnatural amino acid (UAA) with azide, conjugated to BN3 (PSB12379-PEG3-DBCO), also called ABN3-2G Ab-BN3) VH: EVQLVESGGGLVQPGGSLRLSCAASGITFGSYTMSWVRQAPGKGLEWIGTVHYTGKTFYSPSLKSRVTISADTSKNTAYLQMNSLRAEDTAVYYCARGRDFGEPPYVRAFDIWGQGTLVTVSS VL: DIQMTQSPSSLSASVGDRVTITCQASHDISKYLNWYQQKPGKAPKLLIYDASNLETGVPSRFSGSRSGTDFTLTISSLQPEDFATYYCQQXYTTPPTFGQGTKLEI
Result: 0.000271
